Type: in vivo, human
Study conditions: human, plasma, oral, 50 mg, tmax, moderate hepatic impairment, 50 mg dose only; median (min-max)
Assay endpoint: tmax
Units required after the number.

State the recorded tmax for this entry: "Cn1cnc2c(F)c(Nc3ccc(Br)cc3Cl)c(C(=O)NOCCO)cc21"
1 h

* * *

Type: in vivo, human
Study conditions: human, plasma, oral, 50 mg, Cmax, healthy subjects; geometric mean (gCV%)
Assay endpoint: Cmax (ng/mL)
Field format: number, assumed ng/mL, no unit text.

What value of Cmax has been reported for the following compound? "Cn1cnc2c(F)c(Nc3ccc(Br)cc3Cl)c(C(=O)NOCCO)cc21"
863

* * *

Format: in vivo, human
Study conditions: human, plasma, oral, 50 mg, t1/2, moderate hepatic impairment, 50 mg dose only; arithmetic mean (SD)
Assay endpoint: half-life (h)
# value in h; strip the unit string

Which measured half-life value corresponds to "Cn1cnc2c(F)c(Nc3ccc(Br)cc3Cl)c(C(=O)NOCCO)cc21" ?
9.92

* * *

Method description: Renal impairment study: excretion in urine and blood dialysate
Type: in vivo, human
Study conditions: human, blood dialysate, oral, 50 mg
Assay endpoint: clearance (mL/min)
Number in mL/min, nothing else.

Fill in: clearance of "Cn1cnc2c(F)c(Nc3ccc(Br)cc3Cl)c(C(=O)NOCCO)cc21" is ___
9.63
